protocol summary: soluble fraction after stress (log2 fold change); higher = more stays soluble; pooled small domains, quantitative proteomics;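 further: 20 min heating vs room temperature control held 20 min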
test context: stress: 75 degC
The threshold is inclusive: soluble fraction (log2) of exactly -1 counts as Met; values below receive Not met.

Example cases with answers are listed next.
HMKSSYSGNFKQNVVEYMHNNHLSATETANHFKLGGGSVVLRWERIYYEEGPQALYEERRGR = Not met
HMSEEQLKAFLEKVQGDTSLQEKLKAAADANAVVEIAKEAGFSISADDLKNAQSELSEEELE = Met
HMIVVMKTSASERDLQEVIARIEQFGFATRSIVGSERATVSVLGAPLPDSLQEALERMPGVEEVVRITK = Not met

Shift focus to the following entry.
INPUT: Dear colleague, could you confirm whether "HMSIESPEEFNAKFPPGSEIYATNIQKNAIVQSPANAKGDVEILANSMRLTINFRFISKRDT" has soluble fraction (log2) at or above -1?
OUTPUT: Not met

====

protocol summary: soluble fraction after stress (log2 fold change); higher = more stays soluble; pooled small domains, quantitative proteomics
test context: stress: 75 degC
property name: soluble fraction (log2)
One number for each entry.

Some solved cases for reference:
HMFQLSNEAKQQVLGELKRYESKQSAVLPALYIGQKDNKGHITPEVIRELSKVMDIPESQINEVFTFYTM = -0.287
HMKMVEIDYGKFLTMLDTGKVKSVEIENNRIAINPSSSKDKNIYITGRMDDPELVDRLKNAKVEFTKVIP = -0.0753

Report soluble fraction (log2) for each item below.
1. HMNRMKLLREQHNLSQTDLAKILNISRQSYNFYENEKRDPDTTMLIRIADFFNVSLDYLLGRTNN
2. HMIAWNFDTMKESLSEMERVDYQEFIKAFLSLELSISDRTILNQVYQDYMDEDDLSLISDELRV
3. HMQTTKTGTITASSLYVRSGASTSHKVLGTVSKGKTVQIKDTQDGWHKISYNGDHGWVSGKYVSTT
4. HMNDLKEDTITVQSVEYIDSDDGTMVYIKDTNHQVYKQAFKEDESLIRISAGDVLHVKYQPMDNEIHLL
5. HMANLDSLIKKVGQYAKDKQSISVDGIKKDLSIDKDMVKEALAELLKIGVVDKPDEAGQYKVIM

OUTPUT:
1: -2.84; 2: 0.0602; 3: 0.226; 4: -0.341; 5: 0.51

====

Exercise: state measured soluble fraction (log2) for each of the sequences provided.
protocol summary: soluble fraction after stress (log2 fold change); higher = more stays soluble; pooled small domains, quantitative proteomics
test context: stress: 75 degC
Give bare numbers.

HMPMTRILFLPDDRTILQFDSAEPAEDLVSAVNAGRWLPPEPYRSGFGLGLPENRLRASRQGALVVVMLS = -0.984
HMDLTPEEQMDLYRLLDSLPTEERTYLILHYFEERSFPEMAEILSMPEAKLKSRFYRILHRLRAHL = -2.74
HMSEMLPFDEARRQFERDYLVQLLKLTSGNVSQAARLARRNRTDFYALLGRHQLEPASFKPE = -0.971

Attention now turns to another entry.
INPUT: Recorded soluble fraction (log2) for "HMELSTQERIQILLEILNQREIISFSQTLRKKEGKKGVVVTFLASLELAKDGYVTLVQNKSDQIYLRSN" , please?
OUTPUT: -0.803

====

protocol summary: soluble fraction after stress (log2 fold change); higher = more stays soluble; pooled small domains, quantitative proteomics
test context: stress: 75 degC
property name: soluble fraction (log2)
Give bare numbers.

Recorded results for 3 sequences are shown here.
HMSHGFFELKTTQKEALIKLLDSHPNFTHTKTEADLTTAFLKLPMDAEQFNKLLFTNGIVLSHLVKRK = -0.581
HMTQNSAITNRVLYMQRTLRQYGYAVPESGNFDRTTRAHAAEFLYNATGLPVRENQSVQEFYRAFQRVQG = -1.77
HMQNNKITIYISGAVNRPGIVTIESDKRLYDAVELLGGTTKEADLNGVNLSVRLEDEQHYIIPKIGEA = -0.432

Would you mind listing soluble fraction (log2) for each of the following sequences?
1. HMAPELSGEKLWDAQDVAMFLRVKPTTVWSYVSRDGFPAPVSQAGRAGMWSEPLVVQWYLSRPG
2. HMSTMKSKWFVSSNPIAGVMKYQAQRKKDVNAVDSSENREASGQWYTDKEEAQAIVDKLNAEEQIKEAGK
3. HMINYYELLKLDMNAAHEEINDAIKLESEKNTIPEDQIRTMKSIFFNTEFKKEYDQRLMNFLLT
4. HMSASAIYVRPKDVKEPEEVADYLSGVLELDREKLYKKITDKSQWIALIERKVDNDIAFDIRNKKFKGIEI
5. HMKEQIKVPDLSNKTPEEAKKELNTLGLGARKGGEESSDTVEEGLITRQEPAAGEQVDKNTQILFYVSTGK

OUTPUT:
1. 0.154
2. -0.0426
3. -0.671
4. -0.301
5. 0.901

Could you report soluble fraction (log2) for every entry in the following list?
1. HMKNDIQLKHDVEEELQWDPAVDASRFAVQAKDGVVTLSGGVDTFADKHAAEEAIRRVAGVTALVIHVDV
2. HMTKQDYLTALQQELNKNAVADAEDIVSEYEQHFQFKLADGFTEEEIAAKLGAPAQIALQFAG
3. HMPQGFEDLTEREREVLTLIAEGRTNQEIADALVISIKTVNRHRENIMAKLNLHSRVELVRYAIAQGLI
4. HMSATQDAAIAVRIRDILSELDGYEDVTVTVTSGIVTMRGTTLDSEKIARLNDLTGRVEGVVAIENSVTET
5. HMAGLELVVTREQAGRTVKSLLRGELGISTALMGRLKRTGTGLTVNGTRVFTNAVLREGDRLAVDLDAAE
6. HMGIRYQLADDVTDEQITAMTGKKAKIAAAIKAAGSAVSKMNVAGEMGYDKQNPINKDFMELVDAGIIVPS

OUTPUT:
-0.27
0.826
-2.61
-0.207
-1.35
-0.0507

Working through the 2 sequences below one at a time, give soluble fraction (log2) for each.
1. HMSQDTLIENGKVFLIHKVVAGQTLYGLSKAYNITIEDIIKYNPQAENGIKIGEDIKIFLKEE
2. HMQPLGHDLTERELDVLALMVTGMNNSEIADKLVVSRSTIKYHVSNILSKLQATSRTEAVAYALQQNLVH

OUTPUT:
[-0.924, -2.51]

Would you mind giving soluble fraction (log2) for every sequence in the list below?
1. HMTETSKLTDAKQLLESILSSGEVSYKDIISAAEEYEIGKRTLMSAKALLSIESIKKTDGWYWTLPH
2. HMDPFVILGISKDSSQSEILEAYKTKRAYYQEHVFDEGDQGAQAARMLGQLDDAYQQAMELSHE
3. HMPMIQHFHRMISAALGISEKQIVQTLGLLNDGATIPFISRYRKEVTGGLDEVQIESIKTHYEKLNEIAK
4. HMLTTVAAQRAALHQEEDITKLREIILKLVPFWGLDGGAYADKETSIQLERQYRESFDQAVSAARRSGQA
5. HMFIEMDEPEKILHRILNEANGKLELDKIGYRAEWPIGKVLTVLMSLELKGVVQSHPGKVYSL

OUTPUT:
1. -0.368
2. 0.0281
3. -2.33
4. -0.335
5. -0.371
